Origin of the recorded values: ChEMBL document CHEMBL3885881

- Organism: Rattus norvegicus
- assay-explanation: DrugMatrix - Regimen: Daily Repeat
- Type: toxicity, organism-based, Sprague-Dawley
- Set-up: regimen Daily Repeat, gender Male, age 6-8 weeks
- test-settings: in vivo, po, 1500 mg/kg, 120 h, tissue Blood, route oral GAVAGE, dose level High, time 5 day, vehicle .5 % CMC
quantity: BASOPHIL (%)
Provide only the numeric value, understood in %.

Dear colleague, please send me the reported BASOPHIL for `CCOC(=O)[C@H](CCc1ccccc1)N[C@@H](C)C(=O)N1CCC[C@H]1C(=O)O` when you can.
0

Dear colleague, please send me the reported BASOPHIL for O=c1cc(-c2ccccc2)oc2ccc3ccccc3c12 [BETA-NAPHTHOFLAVONE] when you can.
0.43

Dear colleague, please send me the reported BASOPHIL for C[C@@H](O)[C@H]1C(=O)N2C(C(=O)O)=C(S[C@@H]3CN[C@H](C(=O)N(C)C)C3)[C@H](C)[C@H]12 [MEROPENEM] when you can.
0

Dear colleague, please send me the reported BASOPHIL for Nc1nc2c(c(=O)[nH]1)N(C=O)C(CNc1ccc(C(=O)N[C@@H](CCC(=O)O)C(=O)O)cc1)CN2 (stereo not given in full) [LEUCOVORIN] when you can.
0

Dear colleague, please send me the reported BASOPHIL for CC(C)(Sc1cc(C(C)(C)C)c(O)c(C(C)(C)C)c1)Sc1cc(C(C)(C)C)c(O)c(C(C)(C)C)c1 [PROBUCOL] when you can.
0

---

- Organism: Rattus norvegicus
- assay-explanation: DrugMatrix - Regimen: Daily Repeat
- Type: toxicity, organism-based, Sprague-Dawley
- Parameters: regimen Daily Repeat, gender Male, age 6-8 weeks
- test-settings: in vivo, po, 0 mg/kg, 72 h, tissue Blood, route oral GAVAGE, dose level Control, time 3 day, vehicle 100 % WATER
quantity: MEAN CORPUSCULAR HEMOGLOBIN (pg)
Provide only the numeric value, understood in pg.

Dear colleague, please send me the reported MEAN CORPUSCULAR HEMOGLOBIN for `O=C(O)c1cc(=O)c2c(OCC(O)COc3cccc4oc(C(=O)O)cc(=O)c34)cccc2o1` when you can.
24.2

Dear colleague, please send me the reported MEAN CORPUSCULAR HEMOGLOBIN for O=P1(N(CCCl)CCCl)NCCCO1 (configuration not stated) [CYCLOPHOSPHAMIDE ANHYDROUS] when you can.
24.5

Dear colleague, please send me the reported MEAN CORPUSCULAR HEMOGLOBIN for `CCOC(N)=O` when you can.
25.62

Dear colleague, please send me the reported MEAN CORPUSCULAR HEMOGLOBIN for `O=C(O)c1cccnc1` when you can.
25.23

Dear colleague, please send me the reported MEAN CORPUSCULAR HEMOGLOBIN for `CC[C@H]1OC(=O)[C@H](C)[C@@H](O[C@H]2C[C@@](C)(OC)[C@@H](O)[C@H](C)O2)[C@H](C)[C@@H](O[C@@H]2O[C@H](C)C[C@H](N(C)C)[C@H]2O)[C@](C)(OC)C[C@@H](C)C(=O)[C@H](C)[C@@H](O)[C@]1(C)O` when you can.
24.2

Dear colleague, please send me the reported MEAN CORPUSCULAR HEMOGLOBIN for `CNS(=O)(=O)Cc1ccc2[nH]cc(CCN(C)C)c2c1` when you can.
24.88

Dear colleague, please send me the reported MEAN CORPUSCULAR HEMOGLOBIN for Cc1c(N(C)CS(=O)(=O)[O-])c(=O)n(-c2ccccc2)n1C.[Na+] [DIPYRONE SODIUM] when you can.
23.68

Dear colleague, please send me the reported MEAN CORPUSCULAR HEMOGLOBIN for `CC(C)(C)NC[C@H](O)COc1nsnc1N1CCOCC1` when you can.
24.3

Dear colleague, please send me the reported MEAN CORPUSCULAR HEMOGLOBIN for `OCCO` when you can.
24.12

Dear colleague, please send me the reported MEAN CORPUSCULAR HEMOGLOBIN for `CC[C@H]1OC(=O)[C@H](C)[C@@H](O[C@H]2C[C@@](C)(OC)[C@@H](O)[C@H](C)O2)[C@H](C)[C@@H](O[C@@H]2O[C@H](C)C[C@H](N(C)C)[C@H]2O)[C@](C)(O)C[C@@H](C)CN(C)[C@H](C)[C@@H](O)[C@]1(C)O` when you can.
25.67

Dear colleague, please send me the reported MEAN CORPUSCULAR HEMOGLOBIN for CCN(CC)CC#CCOC(=O)C(O)(c1ccccc1)C1CCCCC1 (configuration not stated) when you can.
23.62

Dear colleague, please send me the reported MEAN CORPUSCULAR HEMOGLOBIN for `Nc1ccc(S(=O)(=O)Nc2ncccn2)cc1` when you can.
24.38

Dear colleague, please send me the reported MEAN CORPUSCULAR HEMOGLOBIN for `Nc1ccc(S(=O)(=O)Nc2nccs2)cc1` when you can.
24.3

Dear colleague, please send me the reported MEAN CORPUSCULAR HEMOGLOBIN for CN1C2CCCC1CC(NC(=O)c1nn(C)c3ccccc13)C2 (configuration not stated) when you can.
24.3

Dear colleague, please send me the reported MEAN CORPUSCULAR HEMOGLOBIN for `CCCc1nn(C)c2c(=O)[nH]c(-c3cc(S(=O)(=O)N4CCN(C)CC4)ccc3OCC)nc12` when you can.
24.12

Dear colleague, please send me the reported MEAN CORPUSCULAR HEMOGLOBIN for `CCCCCCCCCCCCCCCC[n+]1ccccc1.[Br-]` when you can.
25.92

Dear colleague, please send me the reported MEAN CORPUSCULAR HEMOGLOBIN for `CCN[C@@H](C)Cc1cccc(C(F)(F)F)c1` when you can.
24.38
